ASSAY EXPLANATION: Glutathione peroxidase like activity (NADPH-glutathione reductase coupled system)
Assay type: biochemical
CONDITION SET: 50 μM compound, 25° C.
Rate/0.00622 (nmol NADPH/min/mL) by entry:

>  <SMILES CODE>
CC(C)/[N+]([O-])=C\c1ccc(Cn2[se]c3ccccc3c2=O)cc1

>  <Rate/0.00622 (nmol NADPH/min/mL)>
13.50 nmol NADPH/min/mL

$$$$
>  <SMILES CODE>
CC(C)/[N+]([O-])=C\c1cccc(-n2[se]c3ccccc3c2=O)c1

>  <Rate/0.00622 (nmol NADPH/min/mL)>
20.10 nmol NADPH/min/mL

$$$$
>  <SMILES CODE>
CC(C)/[N+]([O-])=C/c1ccc(-n2[se]c3ccccc3c2=O)cc1

>  <Rate/0.00622 (nmol NADPH/min/mL)>
22.67 nmol NADPH/min/mL

$$$$
>  <SMILES CODE>
CC(C)[N+]([O-])=Cc1csc(-n2[se]c3ccccc3c2=O)n1

>  <Rate/0.00622 (nmol NADPH/min/mL)>
20.13 nmol NADPH/min/mL

$$$$

* * *

ASSAY EXPLANATION: Glutathione peroxidase like activity (NADPH-glutathione reductase coupled system)
Assay type: biochemical
CONDITION SET: 50 μM compound, 25° C.

>  <COMPOUND>
CC(C)/[N+]([O-])=C/c1ccc(-n2[se]c3ccccc3c2=O)cc1 [Example 1]

>  <UNIT OF MEASURE>
A340/min

>  <Rate A340/min(30˜300 sec)>
−0.141

$$$$
>  <COMPOUND>
CC(C)/[N+]([O-])=C\c1ccc(Cn2[se]c3ccccc3c2=O)cc1 [Example 7]

>  <UNIT OF MEASURE>
A340/min

>  <Rate A340/min(30˜300 sec)>
−0.084

$$$$
>  <COMPOUND>
CC(C)[N+]([O-])=Cc1csc(-n2[se]c3ccccc3c2=O)n1 [Example 5]

>  <UNIT OF MEASURE>
A340/min

>  <Rate A340/min(30˜300 sec)>
−0.125

$$$$
>  <COMPOUND>
CC(C)/[N+]([O-])=C\c1cccc(-n2[se]c3ccccc3c2=O)c1 [Example 2]

>  <UNIT OF MEASURE>
A340/min

>  <Rate A340/min(30˜300 sec)>
−0.125

$$$$

FYI, the data here is from patent US6815459B2.
